Target: Penicillin-binding protein 2x (Streptococcus pneumoniae serotype 4 (strain ATCC BAA-334 / TIGR4)) (UniProt P14677)
Sequence (whole entry): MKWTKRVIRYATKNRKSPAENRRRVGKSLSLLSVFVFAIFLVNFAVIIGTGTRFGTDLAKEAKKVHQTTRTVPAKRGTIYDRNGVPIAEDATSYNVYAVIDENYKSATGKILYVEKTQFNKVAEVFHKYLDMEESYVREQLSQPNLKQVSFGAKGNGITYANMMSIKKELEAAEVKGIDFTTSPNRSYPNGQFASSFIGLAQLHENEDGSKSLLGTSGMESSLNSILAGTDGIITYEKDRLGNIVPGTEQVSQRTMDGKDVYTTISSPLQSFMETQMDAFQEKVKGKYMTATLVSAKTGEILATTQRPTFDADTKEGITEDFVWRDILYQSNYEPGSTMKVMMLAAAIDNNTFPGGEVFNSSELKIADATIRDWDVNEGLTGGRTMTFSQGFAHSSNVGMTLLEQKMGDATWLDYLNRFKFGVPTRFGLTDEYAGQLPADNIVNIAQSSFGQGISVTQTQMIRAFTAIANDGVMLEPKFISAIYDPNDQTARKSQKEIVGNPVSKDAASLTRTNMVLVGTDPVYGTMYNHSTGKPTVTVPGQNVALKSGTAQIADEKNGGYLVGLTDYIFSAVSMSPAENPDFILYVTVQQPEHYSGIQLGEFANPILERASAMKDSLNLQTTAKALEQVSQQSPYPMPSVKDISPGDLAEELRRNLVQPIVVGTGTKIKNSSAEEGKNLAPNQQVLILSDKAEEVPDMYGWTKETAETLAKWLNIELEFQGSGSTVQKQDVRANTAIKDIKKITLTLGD
Experiment: Inhibition of penicillin-resistant Streptococcus pneumoniae 5204 PBP2X preincubated for 4 hrs before addition of substrate (R)-[2-(benzoylamino)propionylsulfanyl]acetic acid
The source made the active and inactive calls. The rule behind the calls is not given here.
// allowed return values: active, inactive

[[record]]
compound = "CC(=O)C[n+]1ccc(SCC2=C(C(=O)[O-])N3C(=O)[C@@H](NC(=O)/C(=N/OC4CCCC4)c4csc(N)n4)[C@H]3SC2)cc1"
label_class = "active"

[[record]]
compound = "CC1(C)S[C@@H]2[C@H](NC(=O)[C@H](N)c3ccccc3)C(=O)N2[C@H]1C(=O)O"
label_class = "active"

[[record]]
compound = "CC(NC(=O)C(C)NC(=O)CCCCCN)C(=O)O (centres undefined)"
label_class = "inactive"

[[record]]
compound = "CCn1c2ccccc2c2cc(/C=C3\\S/C(=N\\c4ccccc4)N(C(C(=O)O)C(C)C)C3=O)ccc21 (centres undefined)"
label_class = "inactive"

[[record]]
compound = "C[C@@H](O)[C@H]1C(=O)N2C(C(=O)O)=C(SC3CN(C4=NCCS4)C3)[C@H](C)[C@H]12"
label_class = "active"

[[record]]
compound = "C[C@@H](O)[C@H]1C(=O)N2C(C(=O)[O-])=C(SC3Cn4cnc[n+]4C3)[C@H](C)[C@H]12 (some centres undefined)"
label_class = "active"

[[record]]
compound = "CC(=N)N1CC[C@H](SC2=C(C(=O)O)N3C(=O)[C@H]([C@@H](C)O)[C@H]3C2)C1"
label_class = "active"

[[record]]
compound = "CCO/N=C(\\C(=O)N[C@@H]1C(=O)N2C(C(=O)[O-])=C(C[n+]3cccc4c3ncn4CCCNC)CS[C@H]12)c1nsc(N)n1"
label_class = "active"


Record request — test call for N[C@@H](C(=O)N[C@@H]1C(=O)N2C(C(=O)O)=C(Cl)CC[C@H]12)c1ccccc1
active

Record request — test call for CC(=O)NC1CON(C2(C(=O)O)CCC(=O)O2)C1=O (centres undefined)
active

Record request — test call for CO/N=C(\C(=O)N[C@@H]1C(=O)N2C(C(=O)O)=C(COC(C)=O)CS[C@H]12)c1csc(N)n1
active

Record request — test call for CC=CC1=C(C(=O)O)N2C(=O)[C@@H](NC(=O)[C@H](N)c3ccc(O)cc3)[C@H]2SC1
active

Record request — test call for COCC1=C(C(=O)O)N2C(=O)[C@@H](NC(=O)/C(=N\OC)c3csc(N)n3)[C@H]2SC1
active

Record request — test call for CC/C=C(\C(=O)N[C@@H]1C(=O)N2C(C(=O)O)=C(COC(N)=O)CS[C@H]12)c1csc(N)n1
active

Record request — test call for O=C(COc1ccccc1)N[C@H]1CON([C@@]2(C(=O)O)CCC(=O)O2)C1=O
active

Record request — test call for O=C(Cc1cccs1)N[C@@H]1C(=O)N2C(C(=O)O)=C(/C=C/c3ccc([N+](=O)[O-])cc3[N+](=O)[O-])CS[C@H]12
active

Record request — test call for C[C@@H](O)[C@H]1C(=O)N2C(C(=O)O)=C(SCCNC=N)C[C@H]12
active

Record request — test call for C[C@H]1COc2c(N3CCN(C)CC3)c(F)cc3c(=O)c(C(=O)O)cn1c23
active

Record request — test call for CCC1C(=O)N2CC1CC(OC)=C2C(=O)O (centres undefined)
active

Record request — test call for C[C@@H](O)[C@H]1C(=O)N2C(C(=O)O)=C(S[C@@H]3CN[C@H](C(=O)N(C)C)C3)[C@H](C)[C@H]12
active

Record request — test call for CO/N=C(\C(=O)N[C@@H]1C(=O)N2C(C(=O)O)=C(CSc3nc(=O)c(O)nn3C)CS[C@H]12)c1csc(N)n1
active

Record request — test call for O=C(O)c1cc(-c2ccc(/C=C3\S/C(=N\c4ccccc4)N(c4ccccc4)C3=O)o2)ccc1Cl
inactive

Record request — test call for C=CC1=C(C(=O)O)N2C(=O)[C@@H](NC(=O)/C(=N\O)c3csc(N)n3)[C@H]2SC1
active

Record request — test call for C[C@@H](NC(=O)c1ccccc1)C(=O)SCC(=O)O
active
